# System: NCI-H322M lung
# run_description: NCI-60 one-dose screen, 48 h (100 = growth as untreated, 0 = no growth, -100 = all killed)
# stated_conditions: 10 µM unless noted
The panel holds about 83,000 compounds, 20% with a hit somewhere; the sample as a whole holds those more often.
readout_kind: growth (%)
One number for each entry, in %.

Cc1ccc(S(=O)(=O)NC(=O)NCCSSCCNC(=O)NS(=O)(=O)c2ccc(C)cc2)cc1	101
Cc1cccc(-[n+]2noc(N)n2)c1	87.7
OCCNc1ccccc1	104
COc1ccc(/C=N/NC(=O)COCC(=O)N/N=C/c2ccc(OC)cc2)cc1	113
Cc1ccc(NC(=S)N2CCOCC2)cc1C	85.5

Dear colleague, could you please provide growth for the compounds listed below?
1. O=c1n(CC2CO2)c(=O)n(CC2CO2)n1CC1CO1 (stereo not drawn)
2. Cc1nc(O)cc(=O)[nH]1

## Result
1. 94
2. 99.3
